Listed here are compounds together with their documented z-score.
TARGET_SYSTEM: NADPH oxidase 5 (Homo sapiens)
METHOD_DESCRIPTION: NOX5-dependent H2O2 signal modulators, primary screen, NOX inhibitor project, cell-based, HEK293-NOX5, Amplex Red fluorescence (AID 1161)
EXPERIMENTAL_CONTEXT: HEK293-NOX5, ionomycin, 45 min, higher = more signal
Lab note: jot down the number only; don't add units.

I am curious: what z-score value has been reported for O=C1C=C[C@@H](O)[C@@H]2[C@@H]3C(=O)N(C4CCCCC4)C(=O)[C@@H]3CC[C@@H]12 ?
-0.266

###

Listed here are compounds together with their documented z-score.
METHOD_DESCRIPTION: basal S. cerevisiae growth modulation, no modifier, primary screen, OD600, strain BY4716, 24 h, basal condition (AID 1173)
EXPERIMENTAL_CONTEXT: OD600, 24 h, higher = more signal, called active from +8 up or from −8 down
Activity calls are given as the source filed them.

Known z-score results, listed for orientation:
CC(CCN1CCCc2nc(C)c(C)cc21)=NO[C@H](C)c1cn([C@@H]2COC[C@H]2O)nn1 ... 0.593 (inactive)
O=C1C[C@@H](O)[C@@H](O)[C@@H]2[C@@H]3C(=O)N(C4CCCCC4)C(=O)[C@@H]3CC[C@@H]12 ... 0.133 (inactive)
COC(=O)[C@H](C)NC(=O)CCC1CC(OC(=O)NCc2ccc3c(c2)OCO3)CC2(CCCC(COC(=O)NCCCN3CCCC3=O)O2)O1 (stereo partly drawn) ... 0.58 (inactive)
O=C(NCCC[N+]1=CC=NC1c1ccccc1)N1CCCc2nc(-c3ccc(Br)cc3)ccc21 (stereo not drawn) ... -2.72 (inactive)
COC(=O)[C@H](C)NC(=O)CCC1CC(OC(=O)NCc2ccc3c(c2)OCO3)CC2(CCCC(COC(=O)NCCc3ccc(Cl)cc3)O2)O1 (stereo partly drawn) ... 0.515 (inactive)

I am curious: what z-score value has been reported for COC(=O)[C@H](C)NC(=O)CC=C[C@@H](C)[C@@H]1C=C[C@H](O)[C@@H](CO)O1 ?
0.104 (inactive)

Continue with CC(=O)OC[C@H]1O[C@H](CCON=C(C)C)C=C[C@@H]1OC(C)=O
0.421 (inactive)

Continue with CCOC(=O)[C@H](Cc1ccccc1)NC(=O)CCC1CC(OC(=O)NCCc2ccc(F)cc2)CC2(CCCC(COC(=O)NCc3cccc(C(F)(F)F)c3)O2)O1 (stereo partly drawn)
-0.0427 (inactive)

###

METHOD_DESCRIPTION: small-molecule microarray binders of probe aLefty2, primary screen, biochemical, biotinylated probe, 635/667 nm fluorescence (AID 1094);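 further: score merges spot fluorescence near 667 nm with spot signal-to-noise ratio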
EXPERIMENTAL_CONTEXT: higher = more signal
ASSAY_READOUT: composite z-score
Lab note: jot down the number only; don't add units.

Known composite z-score results, listed for orientation:
CCOC(=O)CCN1C(=O)[C@H]2[C@H]3[C@H](O)[C@H](O)CC(=NOCC(C)C)[C@@H]3CC[C@H]2C1=O ... -0.0956
O=C(NN=C1C[C@@H](O)[C@@H](O)[C@@H]2[C@@H]3C(=O)N(Cc4ccccc4)C(=O)[C@@H]3CC[C@H]12)OCc1ccccc1 ... -0.269

I am curious: what composite z-score value has been reported for COc1ccc(COC(=O)NN=C2C[C@@H](O)[C@@H](O)[C@@H]3[C@@H]4C(=O)N([C@@H](C)c5ccccc5)C(=O)[C@@H]4CC[C@@H]23)cc1 ?
0.0378

Continue with O=C1CCCC=C1C(O)C1CCCCC1 (stereo not drawn)
-0.0279

Continue with CC(C)[C@H](NC(=O)OC(C)(C)C)[C@@H](O)CC(=O)C(C)(C)C
-0.215

Continue with COC(=O)[C@H](C)NC(=O)CCC1CC(OC(=O)NCc2cccc3ccccc23)CC2(CCCC(COC(=O)NCCCN3CCCC3=O)O2)O1 (stereo partly drawn)
0.0598

Continue with CC(=O)OC[C@H]1O[C@H](CC=NO[C@H](C)c2cn([C@@H]3COC[C@H]3O)nn2)C=C[C@@H]1OC(C)=O
-0.23

Continue with CON=C(C)CCC(=O)OC[C@H]1O[C@H](C#Cc2ccccc2)C=C[C@@H]1Oc1ccc(C)cc1
-0.143
